In this section we review reported yeast fitness values for a set of variants.
B1: tRNA (parent)
chain: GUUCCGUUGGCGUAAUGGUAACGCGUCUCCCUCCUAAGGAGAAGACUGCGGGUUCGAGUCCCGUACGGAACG

- Variants of: B1
- protocol.text: yeast fitness relative to wild type (ratio to wild type); higher = fitter; tRNA-Arg(CCU), competitive growth, 37 C, YPD
This sample holds only a part of the variants without activity.
measured.metric: yeast fitness

1. GUUCCGUUGGCGUAAUGGUAACGCGACUCCCUCCUAAGGAGAAGACUGCGGGUUCGAGUCCCGUAAGGAACG [U26A C66A] | 0.572
2. GUUUAGUUGGCGUAAUGGUAACGCGUCUCCCUCCUAAGGAGAAGACUGCGGGUUCGAGUCUCGUACGGAACG [C4U C5A C61U] | 0.719
3. GUUCCGUUGGCGUAAUAGUAACGCGUCUCCCACCUAAGGAGAAGACUGCGGGUUCGAGUCCCGUACCGAACG [G17A U32A G67C] | 0.6
4. GUUCCGUUGGCGUAAUGGAAACGCGUCUCCCUCCUAAGGAGAAGACUGCAGGUUCGAGUCCCGUACGGAACG [U19A G50A] | 0.795
5. GCUCCGUUGGCGUUGUGGUAACGCGUCUCUCUCUUAAGGAGAAGACUGCGCGUUUGAGUCCCGUACGGAACG [U2C A14U A15G C30U C34U G51C C55U] | 0.596
6. GUUACGUCGGCGUAAUGGUAACGCGUCUCCCUCCUAAGGAGAAGACUGCGGGUUCGAGUCCCGUACGGAACG [C4A U8C] | 0.887
7. GUUCCGUUGGCGUAAUGGUAACGCGUCUCCCUCCUAAGGUGAAGACUGCGGGUUCGAGUCCCGUAGGGAACG [A40U C66G] | 0.71
8. GUUCCGUUGGCGUAAUGGUAACGCAUCUCCCUCCUAAGGAGAAGUCUGCGGGUUCGAGUCCCGUACGGAACG [G25A A45U] | 0.803
9. GUUCCGUUGCCGUAAUGGUAACGCGUCUCCCUCCUAAGGAGAAGACUGUGGGUUCGAGUCCCGUACGGAACG [G10C C49U] | 0.613
10. GUUCCGUUGGCGUAAUGGUAAAGCGUCUCCCUCCUAAGGAGACGACUGCGGGUUCGAGUCCCGUACGGAACG [C22A A43C] | 0.694
11. GUUCCGUUGGCGUAAUGGUAACGCGUCUCCCUCCUAUGGAGAAGACUGCGGAUUCGAGUCCCGUACGGAACG [A37U G52A] | 0.534
12. GUUCCGUUGGCGUAAUGGUAAUGCGUCUCCCUCCUAAGGAGAUGACUGCGGGUUCGAGUCCCGUACGGAACG [C22U A43U] | 0.788
13. GUUCCGUUGGCGUAAUGGUAACGCGGCUCCCUCCUAAGGAGAAGACUGCGGGUUCGAGUCCCGUACGAAACG [U26G G68A] | 0.824
14. GUUCGGUUGGCGUAAUGGUAACGCGUCUCCCUCCUAAGGAGAAGCCUGCGGGUUCGAGUUCCGUACGGUACG [C5G A45C C60U A69U] | 0.52
15. GUUCCGUUGGCGUAAUGGUAACGCGCGUCCCUCCUAAGGAGAAGACUGCGGGUUCGAGUGCUGUACGGAACG [U26C C27G C60G C62U] | 0.624
16. GUUCCGUUGGCGUAAUGGAAACGCGUCUCCCUCCUAAGGAGAAGACUGCGGGUUUGAGUCCCGUACGGAACG [U19A C55U] | 0.694
17. GUUACGUUGGCGUAAUGGUGACGCGUCUCCCUCCUAAGGAGAACGCUGCGGGUUCGAGUCCCGUACGGAACG [C4A A20G G44C A45G] | 0.506
18. GUUCCGUUGGCGUAAUGGUAACGCGUUUCCCUCCUAAGGAGAAGCCUGCGGGUUCGAGUCCCGUACGGAACG [C27U A45C] | 0.947
19. GUUCCGUUGGCGUAAUGGUUACGCAUCUCCCUCCUAAGGAGAAGACUGCGGGUUCGAGUCCCGUACUGAACG [A20U G25A G67U] | 0.673
20. GUUCCGUUGGAGUAAUGGUAACGCGUCUCCCUCCUAAGGAGAAGACUGCGGCUUCGAGUCCCGUACGGAACG [C11A G52C] | 0.596
21. GUUCUGUUGGCGUACUGGUAACGCGUCUCCCUCCUAAGGAGAAGACUGCGGGUUCGAGUCCCGUACGGAACG [C5U A15C] | 0.763
22. GUUCCGUUGGCGUAAUGGUAACGCGUCUCCCUGCCAAGGAGAAGACUGCGGGUUCGAGACCCGUACGGAACG [C33G U35C U59A] | 0.594
23. GUUGCGUUGGCGUAAUGGUAACGCGUCUCCCUCCUAAGGAGAAGACUGCGGGUUGGAGUCCCGUACGGAACG [C4G C55G] | 0.612
24. GUUACGUUGGCGUAAUGGUAACGAGUCUCCCUCCUAAGGAGGAGACUGCGGGUUCGAGUCCCGUACGGAACG [C4A C24A A42G] | 0.603
25. GUUCGGUUGGCGUAAUGGUAACGCGUCUACAUCCUAAGGAGAAGACUGCGGGUUCGAGUCCCGUACGGAACG [C5G C29A C31A] | 0.714
